Tested on: U2932 parental
test details: cell proliferation relative to vehicle (% of vehicle); higher = less growth inhibition
condition label: 50 nM; 72 h
# cell proliferation per entry

C[C@H]1c2cccc(O)c2C(=O)C2=C(O)[C@]3(O)C(=O)C(C(N)=O)=C(O)[C@@H](N(C)C)[C@@H]3[C@@H](O)[C@@H]21 [Doxycycline Hyclate] :: 106
CN(Cc1cnc2nc(N)nc(N)c2n1)c1ccc(C(=O)N[C@@H](CCC(=O)O)C(=O)O)cc1 [Methotrexate] :: 99.4
Nc1ccc(C(=O)Nc2cccc(-c3nc(N4CCOCC4)c4oc5ncccc5c4n3)c2)cn1 :: 102
COc1ccc(S(=O)(=O)N(C(C)=O)c2ccccc2/C=C/c2cc[n+]([O-])cc2)cc1 :: 88.7

Okay, next one:
Record summary for O=C(Nc1ccc(OC(F)(F)F)cc1)c1sccc1NCc1ccnc2ccccc12 : reported cell proliferation = 100

###

Catalogue of cell proliferation readings, one per entry.
Test system: U2932 TK216-resistant clone 3
test details: cell proliferation relative to vehicle (% of vehicle); higher = less growth inhibition
condition label: 500 nM; 72 h
Answer with a number only.

The recorded cell proliferation for entry COc1cccc(-c2cc(F)ccc2C2Cc3nc(N)nc(C)c3C(=O)N2)n1 (centres undefined) equals 18.7

Lab book: cell proliferation of Cc1c(NC(=O)OC[C@@H]2COCCN2)cn2ncnc(Nc3ccc4c(cnn4Cc4cccc(F)c4)c3)c12 noted as 71.9

###

System: U2932 TK216-resistant clone 3
test details: cell proliferation relative to vehicle (% of vehicle); higher = less growth inhibition
condition label: 50 nM; 72 h
Property: cell proliferation; scope: individual compounds
Just the number.

COc1cc(Nc2ncc(F)c(Nc3ccc4c(n3)NC(=O)C(C)(C)O4)n2)cc(OC)c1OC [R406 (free base)] :: 103
Cn1cncc1[C@@](N)(c1ccc(Cl)cc1)c1ccc2c(c1)c(-c1cccc(Cl)c1)cc(=O)n2C :: 71.5
Nc1ccc(C(=O)Nc2cccc(-c3nc(N4CCOCC4)c4oc5ncccc5c4n3)c2)cn1 :: 102
C/C(=C\C(=O)Nc1ccccc1C(=O)O)c1ccc2ccccc2c1 :: 109
O=c1ncccn1[C@@H]1O[C@H](CO)[C@@H](O)[C@H]1O :: 102
COc1ccc(C2=N[C@@H](c3ccc(Cl)cc3)[C@@H](c3ccc(Cl)cc3)N2C(=O)N2CCNC(=O)C2)c(OC(C)C)c1 [Nutlin-3a] :: 99.8

// cell proliferation lookup, compound = CC(=O)O[C@@]12CO[C@@H]1C[C@H](O)[C@@]1(C)C(=O)[C@H](O)C3=C(C)[C@@H](OC(=O)[C@H](O)[C@@H](NC(=O)OC(C)(C)C)c4ccccc4)C[C@@](O)([C@@H](OC(=O)c4ccccc4)[C@H]21)C3(C)C , result: 5.58

###

Tested on: U2932 TK216-resistant clone 2
test details: cell proliferation relative to vehicle (% of vehicle); higher = less growth inhibition
condition label: 50 nM; 72 h
property: cell proliferation
The response must contain the number and no unit.

According to the records, this molecule COc1nc(C)cnc1NS(=O)(=O)c1cccnc1-c1ccc(-c2nnco2)cc1 [Zibotentan (ZD4054)] displays cell proliferation of 95.1

Value of cell proliferation reported for the molecule NC(=O)Nc1cc(-c2cccc(F)c2)sc1C(=O)N[C@H]1CCCNC1 is 89.8

For CN(NC(=O)CC(=O)NN(C)C(=S)c1ccccc1)C(=S)c1ccccc1 [Elesclomol (STA-4783)] the molecule record lists cell proliferation as 0.164

C[C@@H](Oc1cc(-n2cnc3ccc(CN4CCN(C)CC4)cc32)sc1C(N)=O)c1ccccc1C(F)(F)F yielded cell proliferation of 8.44

cell proliferation in this record for CC(C)NCCCn1c(Sc2cc3c(cc2I)OCO3)nc2c(N)ncnc21 : 113
